Provide the recorded growth for the entries that follow.
- Test system: SR leukemia
- assay: NCI-60 one-dose screen, 48 h (100 = growth as untreated, 0 = no growth, -100 = all killed)
- stated.conditions: 10 µM
About 83,000 compounds went through this panel and 20% of them were active in at least one assay; those are over-represented in the sample as a whole. Activity calls are given as the source filed them. Rule for the calls: active = growth percent below 10; inactive = the rest.

Recall and state the measured growth for O=C(CBr)Nc1ccc(Cl)cc1 . -28.8% (active)

Assign growth to the following record: O=C1CCC(=O)N1SC(Cl)(Cl)Cl 95.2% (inactive)

Given Oc1c(Cl)cc(Cl)c2ccccc12.[Cu+2] , respond with its growth. 31.4% (inactive)

Please give the documented growth of C[C@@H]1C[C@@H]([C@H](O)CC2CC(=O)NC(=O)C2)C(=O)[C@@H](C)C1 13.8% (inactive)

In one line, give reported growth of the entry ClCc1ccc2ccccc2n1 . 88.2% (inactive)

Give recorded growth. COc1ccccc1/C=C/[N+](=O)[O-] -11.9% (active)

Indicate its recorded growth; the compound in question is COc1cc2c(c(OC)c1OC)-c1ccc(O)c(=O)cc1[C@@H](NC(C)=O)CC2 30.1% (inactive)

Please list growth recorded for the compound Cc1cc(C)c(C[N+](C)(C)C)c(C)c1C 7.44% (active)

State its growth: Cc1cc(C(C)(C)c2ccc(O)c(C)c2)ccc1O 92.2% (inactive)

Provide one value: measured growth of CC12OOC(c3ccccc31)c1c2ccc2ccccc12 (stereo not given) -18.8% (active)

State its growth: O=[P+](O)c1ccccc1 102% (inactive)

Look up and state reported growth for COc1cc([C@@H]2c3cc4c(c(O)c3C[C@H]3COC(=O)[C@@H]32)OCO4)cc(OC)c1OC -3.92% (active)

Supply reported growth belonging to this compound: CS(=N)(=O)CCC(N)C(=O)O (stereo not given) 99.9% (inactive)

Input COc1ccc2c(ccc3oc([N+](=O)[O-])cc32)c1 , output reported growth. -9.5% (active)

// Input: [O-][n+]1ccccc1S . Output its growth only. 7.55% (active)
